Data origin: patent US6512097

Target: T1, c-erbB-2 ECD with a Ser-Gly-His6 C-terminal fusion (UniProt P04626 23-652)
T1 construct: extracellular domain; Expressed from CHO cells, IMAC purified; coupled to a CM5 chip, coated on plates, or biotinylated with NHS-LC-biotin; also called c-erbB-2 extracellular domain; biotinylated c-erbB-2 ECD
Test: SPR BIAcore
Procedure: All assays were performed in triplicate. Briefly, […] of radioiodinated sFv was added to 5×10^6 SK-OV cells in the presence of increasing concentrations of unlabeled sFv from the same preparation. After a 30 minute incubation at 20° C., the samples were washed with PBS at 4° C. and centrifuged at 500 g. The amount of labeled sFv bound to the cells was determined by counting the pellets in a gamma counter and the K_a, and K_d were calculated using the EBDA program (V 2.0, G. A. McPherson, 1983). […]
readout label: pKd
Remember, pKd is on a log scale: it is -log10 of the molar concentration.

binder	pKd
C6MH3-D2 (scFv, C6ML3-9 sFv, VH CDR3 library D mutant) scFv: QVQLLQSGAELKKPGESLKISCKGSGYSFTSYWIAWVRQMPGKGLEYMGLIYPGDSDTKYSPSFQGQVTISVDKSVSTAYLQWSSLKPSDSAVYFCARHDVGYCSSSNCAKWPEWLGVWGQGTLVTVSSGGGGSGGGGSGGGGSQSVLTQPPSVSAAPGQKVTISCSGSSSNIGNNYVSWYQQLPGTAPKLLIYGHTNRPAGVPDRFSGSKSGTSASLAISGFRSEDEADYYCASWDYTLSGWVFGGGTKLTVLG	9.80
C6MH3-C3 (scFv) scFv: QVQLLQSGAELKKPEESLKISCKGSGYSFTSYWIAWVRQMPGKGLEYMGLIYPGDSDTKYSPSFQGQVTISVDKSVSTAYLQWSSLKPSDSAVYFCARHDVGYCSSSNCAKWPEYFQHWGQGTLVTVSSGGGGSGGGGSGGGGSQSVLTQPPSVSAAPGQKVTISCSGSSSNIGNNYVSWYQQLPGTAPKLLIYGHTDRPAGVPDRFSGSKSGTSASLAISGFRSEDEADYYCASWDYTLSGWVFGGGTKLTVLG	9.19
C6MH3-B20 (scFv, C6ML3-9 sFv, VH CDR3 library B mutant) scFv: QVQLLQSGAELKKPGESLKISCKGSGYSFTSYWIAWVRQMPGKGLEYMGLIYPGDSDTKYSPSFQGQVTISVDKSVSTAYLQWSSLKPSDSAVYFCARHDVGYCSPARCAKWPEYFQHWGQGTLVTVSSGGGGSGGGGSGGGGSQSVLTQPPSVSAAPGQKVTISCSGSSSNIGNNYVSWYQQLPGTAPKLLIYGHTNRPAGVPDRFSGSKSGTSASLAISGFRSEDEADYYCASWDYTLSGWVFGGGTKLTVLG	9.06
C6MH3-B9 (scFv, C6ML3-9 sFv, VH CDR3 library B mutant) scFv: QVQLLQSGAELKKPGESLKISCKGSGYSFTSYWIAWVRQMPGKGLEYMGLIYPGDSDTKYSPSFQGQVTISVDKSVSTAYLQWSSLKPSDSAVYFCARHDVGYCKTAACAKWPEYFQHWGQGTLVTVSSGGGGSGGGGSGGGGSQSVLTQPPSVSAAPGQKVTISCSGSSSNIGNNYVSWYQQLPGTAPKLLIYGHTNRPAGVPDRFSGSKSGTSASLAISGFRSEDEADYYCASWDYTLSGWVFGGGTKLTVLG	9.06

C6MH3-B5 (scFv, C6ML3-9 sFv, VH CDR3 library B mutant) scFv: QVQLLQSGAELKKPGESLKISCKGSGYSFTSYWIAWVRQMPGKGLEYMGLIYPGDSDTKYSPSFQGQVTISVDKSVSTAYLQWSSLKPSDSAVYFCARHDVGYCTDATCAKWPEYFQHWGQGTLVTVSSGGGGSGGGGSGGGGSQSVLTQPPSVSAAPGQKVTISCSGSSSNIGNNYVSWYQQLPGTAPKLLIYGHTNRPAGVPDRFSGSKSGTSASLAISGFRSEDEADYYCASWDYTLSGWVFGGGTKLTVLG yielded pKd of 9.47
